target: Replicase polyprotein 1ab (Severe acute respiratory syndrome coronavirus 2)
pIC50: −log10 of the molar value.
Is pIC50 at least 5? Then y. If not, n.

Example results:
CC(=O)OCC1Cc2c(-c3ccccn3)ccc(Br)c2-c2c(O)ccc(C)c21 (centres undefined)
n
CC(=O)OCC1Cc2c(-c3ccc(C(C)=O)cn3)cccc2-c2c(O)ccc(-c3ccc(Br)cc3)c21 (centres undefined)
y
CC(=O)OCC1Cc2c(-c3ccc(Br)cn3)cccc2-c2c(O)ccc(C)c21 (centres undefined)
n

Decide: pIC50 of CC(=O)OCC1Cc2c(-c3ccc(C#N)cn3)cccc2-c2c(O)ccc(-c3ccc(Br)cc3)c21 (centres undefined) >= 5?
y

###

These molecules were tested on Replicase polyprotein 1ab (Severe acute respiratory syndrome-related coronavirus); IC50 is the recorded read-out.
Write down the numeric answer in µM and omit the unit.

CC(=O)OCC1Cc2c(-c3ccc(F)cn3)cccc2-c2c(O)ccc(-c3ccc(Br)cc3)c21 (stereo not drawn)
7.81
OCC1Cc2c(-c3cc(-c4ccccc4)ccn3)cccc2-c2c(O)ccc(-c3ccc(Br)cc3)c21 (stereo not drawn)
5.35
CC(=O)OCC1Cc2c(-c3cc(-c4ccccc4)ccn3)cccc2-c2c(O)ccc(-c3ccc(Br)cc3)c21 (stereo not drawn)
17.7
CC(=O)OCC1Cc2c(-c3ccc(C#N)cn3)cccc2-c2c(O)ccc(-c3ccc(Br)cc3)c21 (stereo not drawn)
7.12
CC(=O)OCC1Cc2c(-c3ccc(N(C)C)cn3)cccc2-c2c(O)ccc(-c3ccc(Br)cc3)c21 (stereo not drawn)
5.92
CC(=O)OCC1Cc2c(-c3ccc(NCc4ccccc4)cn3)cccc2-c2c(O)ccc(-c3ccc(Br)cc3)c21 (stereo not drawn)
5.79
CC(=O)OCC1Cc2c(-c3cc(Cl)ccn3)cccc2-c2c(O)ccc(-c3ccc(Br)cc3)c21 (stereo not drawn)
5.44

Please find the next molecule below.
So what's the measured IC50 for this one? CC(=O)OCC1Cc2c(-c3ccc(Cl)cn3)cccc2-c2c(O)ccc(-c3ccc(Br)cc3)c21 (stereo not drawn)
4.06

###

molecular target: Replicase polyprotein 1ab (Severe acute respiratory syndrome coronavirus 2, UniProt P0DTD1)
EXPERIMENTAL ENDPOINT: pIC50
Units for pIC50: none; it is -log10 of a concentration expressed in mol/L.

Worked examples, 6 compounds total:
CC(=O)OCC1Cc2c(-c3ccccn3)ccc(Cl)c2-c2c(O)ccc(C)c21 (centres undefined)
4.07
CC(=O)OCC1Cc2c(-c3ccccn3)cccc2-c2c(O)ccc(Cc3ccccc3)c21 (centres undefined)
4.94
CC(=O)OCC1Cc2c(-c3ccccn3)cccc2-c2c(O)ccc(C3CCCCC3)c21 (centres undefined)
5.04
O=Cc1ccnc(-c2cccc3c2CC(CO)c2c(-c4ccc(Br)cc4)ccc(O)c2-3)c1 (centres undefined)
5.74
CC(=O)OCC1Cc2c(-c3cc(-c4ccccc4)ccn3)cccc2-c2c(O)ccc(C3CCCCC3)c21 (centres undefined)
5.07
CC(=O)OCC1Cc2c(-c3cc(Cl)ccn3)cccc2-c2c(O)ccc(-c3ccc(Br)cc3)c21 (centres undefined)
5.32

Please find the next compound below.
So what's the measured pIC50 for this one? CC(=O)OCC1Cc2c(-c3cc(-c4ccccc4)ccn3)cccc2-c2c(O)ccc(C)c21 (centres undefined)
5.25

###

molecular target: Replicase polyprotein 1ab (Severe acute respiratory syndrome coronavirus 2, UniProt P0DTD1)
Measured IC50, listed per entry.
Write down the numeric answer in µM and omit the unit.

Worked examples, 4 compounds total:
CC(=O)OCC1Cc2c(-c3ccc(F)cn3)cccc2-c2c(O)ccc(C)c21 (stereo not given)
66.8
CC(=O)OCC1Cc2c(-c3ccccn3)cccc2-c2c(O)ccc(-c3ccc(C#N)cc3)c21 (stereo not given)
19.3
CC(=O)OCC1Cc2c(-c3cc(C#N)ccn3)cccc2-c2c(O)ccc(-c3ccc(Br)cc3)c21 (stereo not given)
10.3
CC(=O)OCC1Cc2c(-c3cc(C)ccn3)cccc2-c2c(O)ccc(C)c21 (stereo not given)
68.2

Please find the next compound below.
So what's the measured IC50 for this one? CCc1ccc(O)c2c1C(COC(C)=O)Cc1c(-c3ccccn3)cccc1-2 (stereo not given)
33.1
